# Test system: Rattus norvegicus
# procedure summary: Ulcerogenicity in Rattus norvegicus Sprague-Dawley (rat) stomach assessed as ulcer score at 50 mg/kg administered via intragastrically after 6 hr by hematoxylin and eosin staining
# Assay type: toxicity, organism-based
# Parameters: dose 50 mg/kg, route intragastric
# setup conditions: in vivo, po
Assignment: determine reported UI for the given compounds.
Field format: numeric only.

Q: Value lookup for UI; key = `Cc1cccc(C)c1Nc1ccc(=O)[nH]n1`
Ans: 1.8

Q: Value lookup for UI; key = `COc1ccc2c(c1)c(CC(=O)O)c(C)n2C(=O)c1ccc(Cl)cc1`
Ans: 7.2

Q: Value lookup for UI; key = `O=c1ccc(Nc2ccccc2Br)n[nH]1`
Ans: 4.2

Q: Value lookup for UI; key = `O=C(O)c1ccccc1Oc1ccc(=O)[nH]n1`
Ans: 2

Origin of measurements: ChEMBL document CHEMBL3044823
